system-under-test: human LPA1 (Homo sapiens, UniProt Q92633)
Sequence (Q92633 whole entry): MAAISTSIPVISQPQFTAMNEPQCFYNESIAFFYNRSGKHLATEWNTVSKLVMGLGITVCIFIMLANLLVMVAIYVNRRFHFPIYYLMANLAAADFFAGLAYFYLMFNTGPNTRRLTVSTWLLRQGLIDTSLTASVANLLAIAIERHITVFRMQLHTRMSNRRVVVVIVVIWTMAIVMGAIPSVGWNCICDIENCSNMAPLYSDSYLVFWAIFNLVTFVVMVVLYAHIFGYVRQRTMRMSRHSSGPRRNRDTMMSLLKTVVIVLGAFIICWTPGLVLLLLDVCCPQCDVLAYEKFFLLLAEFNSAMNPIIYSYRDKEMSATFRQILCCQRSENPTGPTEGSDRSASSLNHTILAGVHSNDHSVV
assay-comment: LPA1 functional antagonist assay (LPA-induced calcium flux)
test-parameters: CHO cells overexpressing human LPA1, 10 nM LPA, read-out: hLPA1 IC50
pIC50: −log10 of the molar value.
endpoint-label: pIC50

Cc1nc(-c2cnn(C)c2CNc2nccc(OC(C)C)n2)ncc1O[C@H]1CCC[C@H](C(=O)O)C1: 7.54

a: Cn1ncc(-c2ccc(O[C@H]3CCC[C@H](C(=O)O)C3)cn2)c1COc1cccc(-c2ccccc2)c1 (relative stereo)
b: Cc1nc(-c2cnn(C)c2CNc2nccc(OCC(F)(F)F)n2)ncc1O[C@H]1CCC[C@H](C(=O)O)C1
c: CCOc1ccnc(NCc2c(-c3ncc(O[C@H]4CCC[C@H](C(=O)O)C4)cn3)cnn2C)n1
query: Could you please sort these 3 entries by pIC50 from high to low? Lab note: record answer as labels in requested order.
result: b, c, a
(b: 7.92, c: 7.64, a: 6.98)

I: COCCOc1ccnc(NCc2c(-c3ncc(O[C@H]4CCC[C@H](C(=O)O)C4)c(C)n3)cnn2C)n1
II: Cn1ncc(-c2ccc(O[C@H]3CCC[C@H](C(=O)O)C3)cn2)c1CNc1nccc(-c2ccccc2)n1 (relative stereo)
query: I need your help: which of the pair I , II has higher pIC50? Kindly state the label of the option you pick.
result: I

1: COc1ccnc(NCc2c(-c3ncc(O[C@H]4CCC[C@H](C(=O)O)C4)c(C)n3)cnn2C)n1
2: CCOc1ccnc(N(C)Cc2c(-c3ncc(O[C@H]4CCC[C@H](C(=O)O)C4)cn3)cnn2C)n1
query: Larger number for pIC50: 1 , or 2 ? I would appreciate it if you answered with the label of your choice.
result: 1
(1: 7.13, 2: 6.82)

1: Cc1nc(-c2cnn(C)c2CNc2nccc(OC3CC(F)(F)C3)n2)ncc1O[C@H]1CCC[C@H](C(=O)O)C1
2: Cc1nc(-c2cnn(C)c2CNc2nccc(-c3ccccc3)n2)ncc1O[C@H]1CCC[C@H](C(=O)O)C1
3: CCc1nc(-c2cnn(C)c2CNc2nccc(OCC(C)(F)F)n2)ncc1O[C@H]1CCC[C@H](C(=O)O)C1
4: CCc1nc(-c2cnn(C)c2CNc2nccc(OCCOC)n2)ncc1O[C@H]1CCC[C@H](C(=O)O)C1
5: Cc1nc(-c2cnn(C)c2Nc2nccc(OC(C)C)n2)ncc1O[C@H]1CCC[C@H](C(=O)O)C1
query: List items by pIC50 in falling order. Response field: labels, in requested order.
result: 3, 2, 4, 1, 5

P: Cc1nc(-c2cnn(C)c2CNc2nccc(Oc3ccccc3)n2)ncc1O[C@H]1CCC[C@H](C(=O)O)C1
Q: CCCNc1nc(NCc2c(-c3ncc(O[C@H]4CCC[C@H](C(=O)O)C4)c(C)n3)cnn2C)ncc1F
query: Which value of pIC50 is smaller, the one for P or the one for Q ? // return label of chosen record
result: P

A: COCCCOc1ccnc(NCc2c(-c3ncc(O[C@H]4CCC[C@H](C(=O)O)C4)c(C)n3)cnn2C)n1
B: CCc1nc(-c2cnn(C)c2CNc2nccc(OC3CC3)n2)ncc1O[C@H]1CCC[C@H](C(=O)O)C1
query: Between A and B , whose recorded pIC50 is greater? Please indicate the selected item by its label.
result: B
(B: 8.15, A: 7.57)

I: CCc1nc(-c2cnn(C)c2CNc2nccc(OCCCF)n2)ncc1O[C@H]1CCC[C@H](C(=O)O)C1
II: Cc1nc(-c2cnn(C)c2CNc2nccc(OCC(C)(F)F)n2)ncc1O[C@H]1CCC[C@H](C(=O)O)C1
query: Field: entry with larger pIC50 (options I / II ). Write down the label attached to your selection.
result: I
(I: 7.74, II: 7.48)

1: Cc1nc(-c2cnn(C)c2CNc2nccc(C(C)(C)C)n2)ncc1O[C@H]1CCC[C@H](C(=O)O)C1
2: CCc1nc(-c2cnn(C)c2CNc2nccc(OC)n2)ncc1O[C@H]1CCC[C@H](C(=O)O)C1
3: Cc1nc(-c2cnn(C)c2CNc2nccc(-c3ccccn3)n2)ncc1O[C@H]1CCC[C@H](C(=O)O)C1
query: List by increasing pIC50. Present the labels in the sequence the task asks for.
result: 2, 3, 1
